system: MDA-MB-231; experiment: Antiproliferative activity against human MDA-MB-231 cells at 1 uM after 72 hrs; format: functional
Overview of recorded Activity for various molecules
Measured quantity: Activity (%)

{"columns": ["Molecule", "Result value"],
 "data": [
  ["COc1cc2c(c3oc4ccccc4c(=O)c13)CC(NC(=O)CN(C)C)C(C)(C)O2 (centres undefined)", 12],
  ["CN(C)CCNc1cc2c(c3oc4ccccc4c(=O)c13)CC(NC(=O)CN(C)C)C(C)(C)O2 (centres undefined)", 20],
  ["CN(C)CCNc1cc2c(c3oc4ccccc4c(=O)c13)CC(NCCN(C)C)C(C)(C)O2 (centres undefined)", 20],
  ["COc1cc2c(c3oc4ccccc4c(=O)c13)CC(N)C(C)(C)O2 (centres undefined)", 12],
  ["CCN(CC)CCNC1Cc2c(cc(OC)c3c(=O)c4ccccc4oc23)OC1(C)C (centres undefined)", 12],
  ["CN(C)CCNc1cc2c(c3oc4ccccc4c(=O)c13)CC([N+](=O)[O-])C(C)(C)O2 (centres undefined)", 20],
  ["CCN(CC)CC(=O)NC1Cc2c(cc(OC)c3c(=O)c4ccccc4oc23)OC1(C)C (centres undefined)", 12],
  ["COc1cc2c(c3oc4ccccc4c(=O)c13)CC(NCCN(C)C)C(C)(C)O2 (centres undefined)", 12],
  ["CN(C)CCNc1cc2c(c3oc4ccccc4c(=O)c13)CC(N)C(C)(C)O2 (centres undefined)", 20]
]}
